experiment: log P by HPLC on reversed-phase columns (C 18), EEC directive 79/831 Annex V.A8; format: physicochemical; conditions: reversed-phase C18 HPLC column, pH 7.8, neutral range, pH 7.8, 0.001 molar aqueous ammonium bicarbonate / acetonitrile; read-out: log P[b]
Assign chromatographic logP to each entry below.

Use the examples below as a reference point.
| compound | chromatographic logP |
| --- | --- |
| Cc1ccc(I)cc1SCC(F)(F)F | 4.48 |
| O=C(Nc1ccc(Cl)c(SCC(F)(F)F)c1)C(F)(F)F | 3.41 |
| Cc1cc(F)c(-n2c(C)nc3c(cnn3C)c2=O)cc1[S+]([O-])CC(F)(F)F (centres unmarked) | 1.84 |
| Cc1cc(F)c(NC(=O)c2cnn(C)c2[N+](=O)[O-])cc1SCC(F)(F)F | 3.16 |
| Cc1ccc(-n2cnc3sccc3c2=O)cc1[S+]([O-])CC(F)(F)F (centres unmarked) | 1.93 |

Kindly give each listed record's chromatographic logP.
1. N#Cc1ccc(Br)cc1SCC(F)(F)F
2. Cc1ccc(B(O)O)cc1SCC(F)(F)F
3. Nc1cc(SCC(F)(F)F)c(Cl)cc1F

Completion:
1: 3.16; 2: 2.24; 3: 3
